- ASSAY SYSTEM: HLA DRB3*0101 (human)
- ASSAY COMMENT: competition with 125I probe peptide, purified HLA
PROPERTY: IC50 (µM)
Use µM as the unit, but write only the number.

Ask: Retrieve IC50 measured for TGRCIACWRRPRTET (modifications not checked) [HPV31.E6.132 HTL epitope] and print it.
Result: 5.96
